- Tgt: human JAK1 (a.a. 837-1142)
- Test method notes: In vitro JAK kinase assay (HTRF, phosphorylation of a biotinylated peptide), JAK1
- Format: biochemical
- Conditions: ratio of JAK2 IC50 to JAK1 IC50, measured at 1 mM ATP
Quantity name: IC50 Ratio JAK2/JAK1

- COc1c(F)c(F)cc(C(=O)N2CCC(N3CC(CC#N)(n4cc(-c5ncnc6[nH]ccc56)cn4)C3)CC2)c1F: 4.4
- N#CCC1(n2cc(-c3ncnc4[nH]ccc34)cn2)CN(C2CCN(C(=O)c3ccc(F)c(F)c3F)CC2)C1: 6.3
- COC(=O)c1ccc(NC(=O)N2CCC(N3CC(CC#N)(n4cc(-c5ncnc6[nH]ccc56)cn4)C3)CC2)c(F)c1: 4.8

###

- Tgt: human JAK1 (a.a. 837-1142)
- Test method notes: In vitro JAK kinase assay (HTRF, phosphorylation of a biotinylated peptide), JAK1
- Format: biochemical
- Conditions: ratio of JAK2 IC50 to JAK1 IC50, measured at 1 mM ATP
Quantity name: IC50 Ratio JAK2/JAK1

- N#CCC1(n2cc(-c3ncnc4[nH]ccc34)cn2)CN(C2CC3CCC(C2)N3C(=O)c2ccc(F)c(F)c2)C1 (stereo not shown): 4.4
- N#CCC1(n2cc(-c3ncnc4[nH]ccc34)cn2)CN(C2CCN(C(=O)c3ccsc3Br)CC2)C1: 3.4
- N#CCC1(n2cc(-c3ncnc4[nH]ccc34)cn2)CN(C2CCN(C(=O)c3c(F)ccc(F)c3F)CC2)C1: 3.7
- N#CCC1(n2cc(-c3ncnc4[nH]ccc34)cn2)CN(C2CCN(C(=O)c3c(F)cncc3F)CC2)C1: 4.2

###

Record: pIC50 reported on Jak2 (a.a. 828-1132) (Homo sapiens (Human), UniProt O60674).
Sequence (O60674 828-1132): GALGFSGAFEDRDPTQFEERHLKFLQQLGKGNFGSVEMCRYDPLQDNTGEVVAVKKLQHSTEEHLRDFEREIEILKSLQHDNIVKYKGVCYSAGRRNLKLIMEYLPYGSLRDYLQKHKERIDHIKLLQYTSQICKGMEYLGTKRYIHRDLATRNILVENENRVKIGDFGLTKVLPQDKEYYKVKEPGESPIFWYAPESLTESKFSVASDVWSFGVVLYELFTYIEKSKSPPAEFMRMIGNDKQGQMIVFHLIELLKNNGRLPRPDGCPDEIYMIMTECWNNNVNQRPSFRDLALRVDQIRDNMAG
pIC50: −log10 of the molar value.

* N#CCC1(n2cc(-c3c(C#N)cnc4[nH]ccc34)cn2)CN(C2CCN(C(=O)c3cc(C(F)(F)F)ncc3F)CC2)C1 | 7.00 to 7.30
* N#CCC1(n2cc(-c3ncnc4[nH]ccc34)cn2)CN(C2CCN(C(=O)Nc3ccc(Cl)cc3)CC2)C1 | ≥ 8.00
* COc1ncccc1NC(=O)N1CCC(N2CC(CC#N)(n3cc(-c4ccnc5[nH]ccc45)cn3)C2)CC1 | 7.30 to 8.00

Requested read-out pIC50, target or system Jak2 (a.a. 828-1132) (Homo sapiens (Human), UniProt O60674), entry N#CCC1(n2cc(-c3ncnc4[nH]ccc34)cn2)CN(C2CCN(C(=O)c3cccc(Cl)n3)CC2)C1
7.30 to 8.00

###

- Tgt: human JAK1 (a.a. 837-1142)
- Test method notes: In vitro JAK kinase assay (HTRF, phosphorylation of a biotinylated peptide), JAK1
- Assay type: biochemical
- Conditions: ratio of JAK2 IC50 to JAK1 IC50, measured at 1 mM ATP
Quantity name: IC50 Ratio JAK2/JAK1

- N#CCC1(n2cc(-c3ncnc4[nH]ccc34)cn2)CN(C2CC3CCC(C2)N3C(=O)c2ccc(Cl)c(F)c2)C1 (stereo not drawn): 6.2

I. CC1CC(N2CC(CC#N)(n3cc(-c4ncnc5[nH]ccc45)cn3)C2)CCN1C(=O)C1CCC(F)(F)CC1 (stereo not drawn)
II. COC(=O)c1ccccc1NC(=O)N1CCC(N2CC(CC#N)(n3cc(-c4ncnc5[nH]ccc45)cn3)C2)CC1
Which one would you say has the larger IC50 Ratio JAK2/JAK1 value: I , or II ? Bench note: the answer is the label of the chosen record.
I
